# Test system: SW480
# METHOD NOTES: drug sensitivity score (DSS, integrated dose-response area); higher = more sensitive (stronger viability reduction); extreme values may be limits of the assay
# MEASUREMENT SETUP: shRNA: SND1 shRNA1 (SND1 silenced)
EXPERIMENTAL ENDPOINT: drug sensitivity score (DSS)
Give a bare numeral; the unit DSS is implied.

Here's what some known entries look like.
Cn1cc(-c2cnn3c(N)c(Br)c([C@@H]4CCCNC4)nc23)cn1    0.9
CC(C)NC[C@@H](C(=O)N1CCN(c2ncnc3c2[C@H](C)C[C@H]3O)CC1)c1ccc(Cl)cc1    3.5
Cc1ccc(-n2nc(C(C)(C)C)cc2NC(=O)Nc2ccc(OCCN3CCOCC3)c3ccccc23)cc1    4.1
Cn1cc(C[C@@H](N)C(=O)O)c2ccccc21    0
C=C(c1ccc(C(=O)O)cc1)c1cc2c(cc1C)C(C)(C)CCC2(C)C    0
CC(C)C[C@@H](C(=O)N[C@H](C(=O)OC1CCCC1)c1ccccc1)[C@H](O)C(=O)NO    4.4

Prompt: Entry CN1CCC(CNc2ccc3ncc(-c4cccc(OC(F)(F)F)c4)n3n2)CC1 : reported drug sensitivity score = ?
Completion: 9.6

Prompt: Entry O=C1NC(=O)/C(=C/c2ccc3nccc(-c4ccncc4)c3c2)S1 : reported drug sensitivity score = ?
Completion: 7.6

Prompt: Entry CC(C)(C)C[C@@H]1N[C@@H](C(=O)N[C@H]2CC[C@H](O)CC2)[C@H](c2cccc(Cl)c2F)[C@]12C(=O)Nc1cc(Cl)ccc12 : reported drug sensitivity score = ?
Completion: 1.3

* * *

# drug sensitivity score per record follows
# Tested on: SW480
# METHOD NOTES: drug sensitivity score (DSS, integrated dose-response area); higher = more sensitive (stronger viability reduction); extreme values may be limits of the assay
# MEASUREMENT SETUP: shRNA: SND1 shRNA1 (SND1 silenced)
Give a bare numeral; the unit DSS is implied.

Here's what some known entries look like.
Cn1nnc2c(C(N)=O)ncn2c1=O [Temozolomide]    0
C[C@@H](Oc1cc(-n2cnc3ccc(CN4CCN(C)CC4)cc32)sc1C(N)=O)c1ccccc1C(F)(F)F    25.1

Prompt: Entry O=C(NOCC1CC1)c1ccc(F)c(F)c1Nc1ccc(I)cc1Cl : reported drug sensitivity score = ?
Completion: 16.4

Prompt: Entry CCc1c2c(nc3ccc(OC(=O)N4CCC(N5CCCCC5)CC4)cc13)-c1cc3c(c(=O)n1C2)COC(=O)[C@]3(O)CC : reported drug sensitivity score = ?
Completion: 3.2

* * *

# System: SW480
# METHOD NOTES: drug sensitivity score (DSS, integrated dose-response area); higher = more sensitive (stronger viability reduction); extreme values may be limits of the assay
# MEASUREMENT SETUP: shRNA: SND1 shRNA1 (SND1 silenced)
# binarize drug sensitivity score: threshold 10 DSS inclusive, high side 1, low side 0

Example cases with answers are listed next.
CNc1ncc2cc(-c3cc(NC(=O)NCCC(C)(C)C)c(F)cc3C)c(C)nc2n1    1
Cc1ncc(-c2ccnc(Nc3ccc(S(C)(=O)=O)cc3)n2)n1C(C)C    1
CC(C)c1c(C(=O)Nc2ccccc2)c(-c2ccccc2)c(-c2ccc(F)cc2)n1CC[C@@H](O)C[C@@H](O)CC(=O)O    0
C[C@H](Nc1ncnc2nc[nH]c12)c1cc2cccc(Cl)c2c(=O)n1-c1ccccc1    0
O=C(O)CC[C@H]1CC[C@@](c2cc(F)ccc2F)(S(=O)(=O)c2ccc(Cl)cc2)CC1    0

Prompt: # check: drug sensitivity score of CC[C@@H]1C(=O)N(C)c2cnc(Nc3ccc(C(=O)N[C@H]4CC[C@H](N5CCN(CC6CC6)CC5)CC4)cc3OC)nc2N1C(C)C is greater than or equal to 10 DSS
Completion: 1

Prompt: # check: drug sensitivity score of Cc1ccc2nc(CN(CCN(Cc3nc4ccc(C)cc4[nH]3)Cc3nc4ccc(C)cc4[nH]3)Cc3nc4ccc(C)cc4[nH]3)[nH]c2c1 is greater than or equal to 10 DSS
Completion: 0

* * *

# Tested on: SW480
# METHOD NOTES: drug sensitivity score (DSS, integrated dose-response area); higher = more sensitive (stronger viability reduction); extreme values may be limits of the assay
# MEASUREMENT SETUP: shRNA: SND1 shRNA1 (SND1 silenced)
# binarize drug sensitivity score: threshold 0.1 DSS inclusive, high side 1 (yes), low side 0 (no)

Example cases with answers are listed next.
CCC(C)(C)C(=O)O[C@H]1C[C@@H](C)C=C2C=C[C@H](C)[C@H](CC[C@@H]3C[C@@H](O)CC(=O)O3)[C@H]21    1 (yes)
Cc1ccc(C(=O)Nc2ccc(CN3CCN(C)CC3)c(C(F)(F)F)c2)cc1C#Cc1cnc2cccnn12    1 (yes)
COc1cc2c(NC3CCN(C(C)C)CC3)nc(C3CCCCC3)nc2cc1OCCCN1CCCC1    1 (yes)
O=C(O)c1ccc(Nc2ncc3c(n2)-c2ccc(Cl)cc2C(c2c(F)cccc2F)=NC3)cc1    1 (yes)
Cn1cc(-c2ccc3nnc(Sc4ccc5ncccc5c4)n3n2)cn1    0 (no)
O=C(/C=C\n1cnc(-c2cc(C(F)(F)F)cc(C(F)(F)F)c2)n1)NNc1ccccn1 [Verdinexor]    1 (yes)
CNNCc1ccc(C(=O)NC(C)C)cc1    0 (no)
CCn1c(=O)c(-c2cc[nH]n2)cc2c(C)nc(N)nc21    1 (yes)
CC(=O)O[C@H]1C(=O)[C@@]2(C)[C@H]([C@H](OC(=O)c3ccccc3)[C@]3(O)C[C@H](OC(=O)[C@H](O)[C@@H](NC(=O)c4ccccc4)c4ccccc4)C(C)=C1C3(C)C)[C@]1(OC(C)=O)CO[C@@H]1C[C@@H]2O    1 (yes)
Cc1cc(C(C)Nc2ccccc2)c2nc(N3CCOCC3)cc(=O)n2c1 (stereo not given)    1 (yes)

Prompt: # check: drug sensitivity score of C[C@]12CC[C@@H]3c4ccc(OC(=O)N(CCCl)CCCl)cc4CC[C@H]3[C@@H]1CC[C@@H]2O is greater than or equal to 0.1 DSS
Completion: 0 (no)

Prompt: # check: drug sensitivity score of COc1cccc2c1C(=O)c1c(O)c3c(c(O)c1C2=O)C[C@@](O)(/C(CO)=N/NC(=O)CCCCCN1C(=O)C=CC1=O)C[C@@H]3O[C@H]1C[C@H](N)[C@H](O)[C@H](C)O1 is greater than or equal to 0.1 DSS
Completion: 1 (yes)

Prompt: # check: drug sensitivity score of CC(C)n1nc(-c2ccc3oc(N)nc3c2)c2c(N)ncnc21 is greater than or equal to 0.1 DSS
Completion: 1 (yes)

Prompt: # check: drug sensitivity score of CCCOc1ccn2c(C(C)=O)cc(-c3ccccc3S(C)(=O)=O)c2c1 is greater than or equal to 0.1 DSS
Completion: 0 (no)

* * *

# Tested on: SW480
# METHOD NOTES: drug sensitivity score (DSS, integrated dose-response area); higher = more sensitive (stronger viability reduction); extreme values may be limits of the assay
# MEASUREMENT SETUP: shRNA: SND1 shRNA1 (SND1 silenced)
# drug sensitivity score per record follows

Here's what some known entries look like.
CNC(=O)c1cc(COc2nnc(Nc3ccc(Cl)cc3)c3ccoc23)ccn1 [Telatinib]    0 DSS
NCCNc1ccc(NCCN)c2c1C(=O)c1ccncc1C2=O [Pixantrone]    0 DSS
CN[C@@H]1C[C@H]2O[C@@](C)([C@@H]1OC)n1c3ccccc3c3c4c(c5c6ccccc6n2c5c31)C(=O)N[C@H]4O [UCN-01]    24 DSS
COc1ccc(-c2nc(N3CCOCC3)c3sc(CN(C)c4ncc(C(=O)NO)cn4)cc3n2)cn1 [CUDC-907]    40.7 DSS
Cn1cc(C2=Nc3cc(NC(=O)C(N)C4CCCCC4)cc4c3C2=CNNC4=O)cn1 (stereo not drawn)    8.3 DSS

Prompt: Look up drug sensitivity score with SW480 for this compound: Nc1nc(NC2CC2)cc(-c2cccc(Cl)c2Cl)n1 [TH588]
Completion: 6.2 DSS

Prompt: Look up drug sensitivity score with SW480 for this compound: CN(C)C(=O)c1ccc(S(=O)(=O)c2ccc(NC(=O)[C@@](C)(O)C(F)(F)F)c(Cl)c2)cc1 [AZD7545]
Completion: 0 DSS

Prompt: Look up drug sensitivity score with SW480 for this compound: C=CC(=O)N1CCC[C@@H](n2nc(-c3ccc(Oc4ccccc4)cc3)c3c(N)ncnc32)C1 [Ibrutinib]
Completion: 0 DSS

* * *

# Test system: SW480
# METHOD NOTES: drug sensitivity score (DSS, integrated dose-response area); higher = more sensitive (stronger viability reduction); extreme values may be limits of the assay
# MEASUREMENT SETUP: shRNA: SND1 shRNA1 (SND1 silenced)
# drug sensitivity score per record follows
Give a bare numeral; the unit DSS is implied.

Here's what some known entries look like.
C[C@]12CC[C@H](O)CC1=CC[C@@H]1[C@@H]2CC[C@]2(C)C(c3cccnc3)=CC[C@@H]12 [Abiraterone]    0
CC1(C)CCC(c2ccc(Cl)cc2)=C(CN2CCN(c3ccc(C(=O)NS(=O)(=O)c4ccc(N[C@H](CCN5CCOCC5)CSc5ccccc5)c(S(=O)(=O)C(F)(F)F)c4)cc3)CC2)C1 [Navitoclax]    7.4

Prompt: Entry Cc1ccc(F)c(NC(=O)Nc2ccc(-c3cccc4[nH]nc(N)c34)cc2)c1 [Linifanib] : reported drug sensitivity score = ?
Completion: 0

Prompt: Entry COc1cccc2cc(-c3nc([C@H]4CC[C@H](C(=O)O)CC4)n4ncnc(N)c34)[nH]c12 [OSI-027] : reported drug sensitivity score = ?
Completion: 5.4

Prompt: Entry CN1CCc2c(c3ccccc3n2Cc2ccc(C(=O)NO)cc2)C1 [Tubastatin A] : reported drug sensitivity score = ?
Completion: 4.3
